Entry source: ChEMBL document CHEMBL2073789

target-or-test-system: Multidrug resistance-associated protein 1 (MRP1) (Homo sapiens, UniProt P33527)
Sequence (P33527 whole entry): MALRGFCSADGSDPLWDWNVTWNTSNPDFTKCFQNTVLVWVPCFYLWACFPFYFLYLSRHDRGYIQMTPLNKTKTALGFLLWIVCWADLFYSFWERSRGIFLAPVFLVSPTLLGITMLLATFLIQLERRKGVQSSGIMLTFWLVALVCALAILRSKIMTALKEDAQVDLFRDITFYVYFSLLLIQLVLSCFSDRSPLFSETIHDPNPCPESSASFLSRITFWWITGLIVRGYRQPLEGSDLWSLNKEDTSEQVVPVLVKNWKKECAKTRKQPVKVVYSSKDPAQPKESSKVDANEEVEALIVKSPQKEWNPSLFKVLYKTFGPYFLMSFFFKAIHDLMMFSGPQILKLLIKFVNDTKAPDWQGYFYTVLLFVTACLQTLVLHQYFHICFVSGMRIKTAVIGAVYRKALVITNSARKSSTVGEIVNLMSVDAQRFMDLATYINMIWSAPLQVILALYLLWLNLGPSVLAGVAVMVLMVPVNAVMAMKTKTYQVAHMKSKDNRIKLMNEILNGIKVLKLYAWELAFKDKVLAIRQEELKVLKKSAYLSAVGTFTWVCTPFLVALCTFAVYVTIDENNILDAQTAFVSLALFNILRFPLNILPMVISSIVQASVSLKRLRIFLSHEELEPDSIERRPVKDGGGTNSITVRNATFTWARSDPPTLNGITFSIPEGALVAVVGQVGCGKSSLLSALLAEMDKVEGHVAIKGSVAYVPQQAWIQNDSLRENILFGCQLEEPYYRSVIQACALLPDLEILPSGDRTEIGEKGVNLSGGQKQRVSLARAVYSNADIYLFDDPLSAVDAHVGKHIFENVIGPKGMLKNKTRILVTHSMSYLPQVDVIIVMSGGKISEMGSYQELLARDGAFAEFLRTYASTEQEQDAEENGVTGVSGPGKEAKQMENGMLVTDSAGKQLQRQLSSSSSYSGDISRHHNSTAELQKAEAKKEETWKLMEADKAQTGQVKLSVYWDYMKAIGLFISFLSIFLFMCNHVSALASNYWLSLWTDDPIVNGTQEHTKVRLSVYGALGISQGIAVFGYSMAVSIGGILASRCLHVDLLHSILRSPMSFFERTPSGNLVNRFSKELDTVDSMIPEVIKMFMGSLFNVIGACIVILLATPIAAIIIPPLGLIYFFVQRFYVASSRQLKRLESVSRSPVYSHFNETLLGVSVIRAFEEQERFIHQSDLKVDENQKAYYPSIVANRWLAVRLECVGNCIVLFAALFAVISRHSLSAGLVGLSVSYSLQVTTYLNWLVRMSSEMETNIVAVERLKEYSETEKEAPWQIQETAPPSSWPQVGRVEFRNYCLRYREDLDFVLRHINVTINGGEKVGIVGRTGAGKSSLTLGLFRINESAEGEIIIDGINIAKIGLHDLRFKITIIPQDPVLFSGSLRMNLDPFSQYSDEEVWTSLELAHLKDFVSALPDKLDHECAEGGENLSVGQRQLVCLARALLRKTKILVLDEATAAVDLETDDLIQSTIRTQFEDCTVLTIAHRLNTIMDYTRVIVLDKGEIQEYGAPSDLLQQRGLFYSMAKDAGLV
experiment-notes: TP_TRANSPORTER: inhibition of 125I-azidoAG-A photoaffinity labeling (125I-azidoAG-A: 5 uM, JTV-519: 500 uM) in membrane from KB/MRP cells
Assay type: functional, cell membranes, Membrane vesicle
Design: scale not given: the % may be the effect or the level left
test-settings: probe 125I-azidoAG-A (5 uM), read-out: Activity
quantity: activity at 500 µM (%)

COc1ccc2c(c1)CN(C(=O)CCN1CCC(Cc3ccccc3)CC1)CCS2 ... 58
